- System: blood platelets (platelet rich, citrated, human blood plasma)
- PROTOCOL_TEXT: inhibition of platelet aggregation in platelet rich, citrated human blood plasma (aggregometer), agonist ADP or collagen
- Format: cell-based
- CONDITION_LABEL: Homo sapiens, Platelet, agonist COLLAGEN (2 μg); read-out: ID50 (the source's name)
TEST_READOUT: IC50 (µM)

> print(dat)
                                   compound                              study.system  test.readout  qualifier  measured.value
1  C=CCSSCCC[S+]([O-])CC=C (stereo not shown)  blood platelets (platelet rich, citrated, human blood plasma)          IC50          >             400
2  C=CCSS/C=C/C[S+](C)[O-] (stereo not shown)  blood platelets (platelet rich, citrated, human blood plasma)          IC50          =             374
3  CSS/C=C/C[S+](C)[O-] (stereo not shown) [Aliquot 5, (E) 2,3,7-trithiaocta-4-ene 7-oxide]  blood platelets (platelet rich, citrated, human blood plasma)          IC50          =             332
4  C=CCSS/C=C/C[S+]([O-])CCCC(=O)OCC (stereo not shown)  blood platelets (platelet rich, citrated, human blood plasma)          IC50          =             388

====

- System: blood platelets (platelet rich, citrated, human blood plasma)
- PROTOCOL_TEXT: inhibition of platelet aggregation in platelet rich, citrated human blood plasma (aggregometer), agonist ADP or collagen
- Format: cell-based
- CONDITION_LABEL: Homo sapiens, Platelet, agonist ADP (10 μg); read-out: ID50 (the source's name)
pIC50: −log10 of the molar value.
TEST_READOUT: pIC50

> print(dat)
                                   compound  qualifier  measured.value
1  C=CCS(=O)(=O)C/C=C/SSC/C=C/C [Aliquot 11]          =            3.68
2  C=CCSSCCC[S+]([O-])CC=C (stereo not drawn) [Aliquot 3]          <            3.40
3  C=CCS(=O)(=O)C/C=C/SSC/C=C\CCC [Aliquot 13]          =            3.55
4  C=CCSS/C=C/C[S+](C)[O-] (stereo not drawn) [Aliquot 4]          <            3.40
5     C=CCS(=O)(=O)C/C=C/SSCCC [Aliquot 10]          =            3.68
6  CSS/C=C/C[S+](C)[O-] (stereo not drawn) [Aliquot 5, (E) 2,3,7-trithiaocta-4-ene 7-oxide]          <            3.40
7  C=CCS(=O)(=O)C/C=C/SSC/C=C/CCC [Aliquot 14]          <            3.40
8  C=CCS(=O)(=O)C/C=C/SSCc1ccccc1 [Aliquot 12]          =            3.69
9  C=CCSS/C=C/C[S+]([O-])CCCC(=O)OCC (stereo not drawn) [Aliquot 9]          =            3.41
